experiment_notes: Inhibitory constant for RTX binding to porcine spinal cord
metric_name: pKi
Schema: pKi number; meaning minus log10 of the concentration expressed in molar units.

// query What value of pKi has been reported for the following molecule? COc1cc(CC(=O)OCC2=C[C@H]3C4C(C)(C)[C@]4(OC(C)=O)[C@H](OC(=O)Cc4ccccc4)[C@@H](C)[C@]3(O)[C@@H]3C=C(C)C(=O)[C@@]3(O)C2)ccc1O (stereo partly specified)
// result 9.92
